Attribution: patent US8871753B2

# target_or_test_system: Recombinant Human Anaplastic Lymphoma Kinase (Homo sapiens, UniProt Q9UM73)
# Construct: purchased Invitrogen, Carlsbad, Calif
# Sequence (Q9UM73 19-1620): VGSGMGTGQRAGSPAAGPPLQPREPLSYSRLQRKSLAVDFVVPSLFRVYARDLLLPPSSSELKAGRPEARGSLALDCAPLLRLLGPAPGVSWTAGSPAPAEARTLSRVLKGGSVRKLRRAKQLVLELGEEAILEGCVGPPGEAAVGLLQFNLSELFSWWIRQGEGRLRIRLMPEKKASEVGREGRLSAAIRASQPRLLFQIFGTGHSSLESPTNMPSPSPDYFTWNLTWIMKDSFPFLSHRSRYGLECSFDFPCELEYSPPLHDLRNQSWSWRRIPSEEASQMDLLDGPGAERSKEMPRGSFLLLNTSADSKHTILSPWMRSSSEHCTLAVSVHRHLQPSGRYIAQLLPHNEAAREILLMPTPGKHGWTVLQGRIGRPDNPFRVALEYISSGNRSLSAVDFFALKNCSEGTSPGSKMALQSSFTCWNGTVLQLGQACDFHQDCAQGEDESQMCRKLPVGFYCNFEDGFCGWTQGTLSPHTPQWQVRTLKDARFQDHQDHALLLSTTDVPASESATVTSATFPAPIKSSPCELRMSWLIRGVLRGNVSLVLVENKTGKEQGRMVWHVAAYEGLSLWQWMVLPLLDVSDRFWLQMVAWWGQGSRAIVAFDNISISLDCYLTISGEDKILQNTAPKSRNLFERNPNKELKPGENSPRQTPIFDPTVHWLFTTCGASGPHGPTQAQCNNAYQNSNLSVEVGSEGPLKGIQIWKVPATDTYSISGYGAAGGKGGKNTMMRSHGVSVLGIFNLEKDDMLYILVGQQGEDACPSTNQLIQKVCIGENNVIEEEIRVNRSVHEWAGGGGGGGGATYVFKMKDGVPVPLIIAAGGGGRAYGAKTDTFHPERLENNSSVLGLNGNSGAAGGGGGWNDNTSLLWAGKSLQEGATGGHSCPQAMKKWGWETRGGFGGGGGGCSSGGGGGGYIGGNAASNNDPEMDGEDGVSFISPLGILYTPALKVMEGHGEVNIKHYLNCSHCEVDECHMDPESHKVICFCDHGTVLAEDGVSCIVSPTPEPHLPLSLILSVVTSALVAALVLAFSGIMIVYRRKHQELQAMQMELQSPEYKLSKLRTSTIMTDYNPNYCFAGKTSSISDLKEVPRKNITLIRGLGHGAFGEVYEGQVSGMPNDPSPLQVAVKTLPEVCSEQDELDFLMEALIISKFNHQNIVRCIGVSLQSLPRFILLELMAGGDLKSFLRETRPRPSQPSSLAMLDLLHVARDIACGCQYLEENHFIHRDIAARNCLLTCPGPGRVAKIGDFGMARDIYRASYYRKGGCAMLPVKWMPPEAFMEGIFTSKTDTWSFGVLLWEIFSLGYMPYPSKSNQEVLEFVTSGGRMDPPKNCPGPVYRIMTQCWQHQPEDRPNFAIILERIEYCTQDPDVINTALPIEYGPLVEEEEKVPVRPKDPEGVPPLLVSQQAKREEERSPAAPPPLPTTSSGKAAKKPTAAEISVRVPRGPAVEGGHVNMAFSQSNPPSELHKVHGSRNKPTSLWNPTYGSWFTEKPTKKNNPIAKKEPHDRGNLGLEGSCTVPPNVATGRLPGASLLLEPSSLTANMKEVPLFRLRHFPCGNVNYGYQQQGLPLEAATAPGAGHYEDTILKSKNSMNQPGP
# protocol_description: ALK HTRF kinase assay
# Type: biochemical
# experimental_context: Table D1; 90 μM ATP
Counter-ions that a name gives are not always drawn.
Let's look at some molecules and their measured pIC50.
The value called pIC50 is obtained by taking minus log10 of the concentration in mol/L.

For orientation, consider the following solved cases.
>>> val("O=C(Nc1ccc2[nH]ccc2c1)c1cc2cc(c1)OCCSc1cccc(c1)Nc1nc(ncc1Cl)N2 [Example D56, trifluoroacetate]")
5.71
>>> val("O=C1CCc2cccc(c2)Nc2nc(ncc2Cl)Nc2cccc(c2)N1 [Example D76, trifluoroacetate]")
5.69
>>> val("Clc1cnc2nc1Nc1cccc(c1)OCCc1cccc(c1)N2 [Example D8, trifluoroacetate]")
6.45
>>> val("Clc1cnc2nc1Nc1cccc(c1)CCOc1cccc(c1)N2 [Example D5, trifluoroacetate]")
6.29

Q) Report pIC50 on Recombinant Human Anaplastic Lymphoma Kinase (Homo sapiens, UniProt Q9UM73) for this entry: O=C(NC1CCCC1)N1CCN(c2cc(-c3cc4cc(c3)Nc3ncc(Cl)c(n3)Nc3cccc(c3)OCC4)ccn2)CC1 [Example D46, bis(trifluoroacetate)]
A) 6.41
